Hello, the source for this data is patent US8450319B2, in case you need it.

# System: PDE4
# Test protocol: Measurement of PDE4 enzyme inhibiting action
# Type: biochemical, human
# Test context: PDE4 enzyme solution from polymorphonuclear leukocytes of healthy volunteer; 0.2 μM [3H]cAMP, 30° C., 30 minutes; read-out: PDE4 inhibition IC50 value
Reported endpoint: IC50 (nM)
Write it as a number; the unit nM goes unstated.

Here's what some known entries look like.
>  <Molecule>
O=c1[nH]ncc2[nH]c(-c3ccc(OC(F)F)c(OCC4CC4)c3)c(-c3ccccc3)c12 [Example 38]

>  <Measurement unit>
nM

>  <Quantitative readout>
7.1

$$$$
>  <Molecule>
O=c1[nH]ncc2[nH]c(-c3ccc(OC(F)F)c(OC4CC4)c3)c(Cc3ccccc3)c12 [Example 19]

>  <Measurement unit>
nM

>  <Quantitative readout>
0.18

$$$$
>  <Molecule>
COc1ccc(-c2cc3c(=O)[nH]ncc3[nH]2)c2c1OC1(CCCC1)C2 [Example 50]

>  <Measurement unit>
nM

>  <Quantitative readout>
16

$$$$

Entry O=c1[nH]ncc2[nH]c(-c3ccc(OC(F)F)c(OC4CC4)c3)c(Br)c12 [Example 3] , IC50 reported as 5.2

Entry C=CC(O)c1c(-c2ccc(OC(F)F)c(OC3CC3)c2)[nH]c2cn[nH]c(=O)c12 (centres unmarked) [Example 75] , IC50 reported as 1.5

Entry O=c1[nH]ncc2[nH]c(-c3ccc(OC(F)F)c(OC4CC4)c3)c(C3CC3)c12 [Example 14] , IC50 reported as 4.7

Entry CCc1c(-c2ccc(OC(F)F)c(OC3CC3)c2)[nH]c2cn[nH]c(=O)c12 [Example 5] , IC50 reported as 3.4
